measured.on: KRasG12C (Homo sapiens, UniProt P01116, G12C)
Construct: biotin (biotinylated); made in house
Sequence (P01116 1-188 isoform P01116-2 G12C): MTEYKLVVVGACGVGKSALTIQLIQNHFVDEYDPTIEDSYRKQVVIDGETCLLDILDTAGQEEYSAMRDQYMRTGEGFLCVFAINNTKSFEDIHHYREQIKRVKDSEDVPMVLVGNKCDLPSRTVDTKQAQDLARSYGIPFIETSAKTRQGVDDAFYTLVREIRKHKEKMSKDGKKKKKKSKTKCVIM
assay.overview: KRasG12C functional assay (HTRF/FRET nucleotide exchange and Raf RBD binding)
Type: biochemical
measurement.conditions: KRasG12C functional assay IC50, GDP loaded biotinylated KRasG12C, samples incubated for 4 hrs, FRET readout; single experiment or average of two or more
pIC50: −log10 of the molar value.
The threshold is inclusive: pIC50 of exactly 6 counts as satisfied; values below receive not satisfied.

{"compound": "C#Cc1cc2c(c(F)c1-c1c(O)cccc1Cl)OC[C@H]1CN(C(=O)C=C)CCN1C2 (single isomer, unassigned) [Example 76]", "label.class": "satisfied"}
{"compound": "C=CC(=O)N1CCN2Cc3cc(C#CC)c(-c4c(O)cccc4Cl)c(F)c3OC[C@H]2C1 (single isomer, unassigned)", "label.class": "satisfied"}
{"compound": "C=CC(=O)N1CCN2C(=O)c3ccc(-c4c(C)ccc5[nH]ncc45)c(Cl)c3OC[C@H]2C1 (single isomer, unassigned) [Example 7]", "label.class": "not satisfied"}
{"compound": "C=CC(=O)N1CCN2Cc3ccc(-c4c(C)ccc5[nH]ncc45)c(Cl)c3OC[C@H]2C1 (single isomer, unassigned) [Example 9]", "label.class": "not satisfied"}
{"compound": "C=CC(=O)N1CCN2Cc3cc(OC(F)F)c(-c4c(O)cccc4Cl)c(F)c3OC[C@H]2C1 (single isomer, unassigned)", "label.class": "satisfied"}
{"compound": "C=CC(=O)N1CCN2C(=O)c3ccc(-c4c(C)ccc5[nH]ncc45)c(Cl)c3OC[C@@H]2C1 (single isomer, unassigned) [Example 2]", "label.class": "not satisfied"}
{"compound": "C=CC(=O)N1CCN2Cc3cc(F)c(-c4c(O)cccc4Cl)c(F)c3OC[C@H]2C1 (single isomer, unassigned) [Example 42]", "label.class": "not satisfied"}
{"compound": "C=CC(=O)N1CCN2Cc3ccc(-c4c(C)ccc5[nH]ncc45)c(Cl)c3OC[C@@H]2C1 (single isomer, unassigned) [Example 4]", "label.class": "not satisfied"}
{"compound": "C=CC(=O)N1CCN2C(=O)c3ccc(-c4c(C)ccc5[nH]ncc45)c(Cl)c3OC[C@@H]2C1 (single isomer, unassigned) [Example 1]", "label.class": "not satisfied"}
{"compound": "C=CC(=O)N1CCN2Cc3cc(C#N)c(-c4c(O)cccc4Cl)c(F)c3OC[C@H]2C1 (single isomer, unassigned) [Example 55]", "label.class": "satisfied"}
{"compound": "C=CC(=O)N1CCN2Cc3cc(F)c(-c4c(C)cccc4O)c(F)c3OC[C@H]2C1 (single isomer, unassigned) [Example 44]", "label.class": "not satisfied"}
